Origin of values: patent US20120108492A1

target: CR2-C3d interaction (Homo sapiens); construct: DNA corresponding to residues 1-133 of wild-type CR2 (SCR1-2) was PCR amplified; made in house; host or cells: E. coli (pMAL-P2X); assay: Peptide competition ELISA, CR2-C3d (bound C3d, solution phase MBP-CR2); type: binding
Where no end group is shown, it is not given here.
measurement name: IC50 (µM)

>>> measured_number("IATANPRHHSTA [C3dp2.3]")
160
>>> measured_number("APQHLSSQ [C3dp1.3]")
40
>>> measured_number("APQHLSSQYSRT [C3dp1]")
100
>>> measured_number("TRSYQSSLHQPA [C3dp1.2]")
70
>>> measured_number("APQALSSQYSRT [C3dp1.1]")
70
>>> measured_number("ISTSNPRAASTA [C3dp2.1]")
150
>>> measured_number("APAHLSSQ [control]")
700
>>> measured_number("DPKNHVH [C3dcp1.1, DPKNHVH]")
95
>>> measured_number("ISTSNPRH [C3dp2.2]")
190
>>> measured_number("ISTSNPRHHSTA [C3dp2]")
450
